# target_under_test: MAD33 (UniProt Q9TTA5)
# Sequence (Q9TTA5 whole entry, looked up): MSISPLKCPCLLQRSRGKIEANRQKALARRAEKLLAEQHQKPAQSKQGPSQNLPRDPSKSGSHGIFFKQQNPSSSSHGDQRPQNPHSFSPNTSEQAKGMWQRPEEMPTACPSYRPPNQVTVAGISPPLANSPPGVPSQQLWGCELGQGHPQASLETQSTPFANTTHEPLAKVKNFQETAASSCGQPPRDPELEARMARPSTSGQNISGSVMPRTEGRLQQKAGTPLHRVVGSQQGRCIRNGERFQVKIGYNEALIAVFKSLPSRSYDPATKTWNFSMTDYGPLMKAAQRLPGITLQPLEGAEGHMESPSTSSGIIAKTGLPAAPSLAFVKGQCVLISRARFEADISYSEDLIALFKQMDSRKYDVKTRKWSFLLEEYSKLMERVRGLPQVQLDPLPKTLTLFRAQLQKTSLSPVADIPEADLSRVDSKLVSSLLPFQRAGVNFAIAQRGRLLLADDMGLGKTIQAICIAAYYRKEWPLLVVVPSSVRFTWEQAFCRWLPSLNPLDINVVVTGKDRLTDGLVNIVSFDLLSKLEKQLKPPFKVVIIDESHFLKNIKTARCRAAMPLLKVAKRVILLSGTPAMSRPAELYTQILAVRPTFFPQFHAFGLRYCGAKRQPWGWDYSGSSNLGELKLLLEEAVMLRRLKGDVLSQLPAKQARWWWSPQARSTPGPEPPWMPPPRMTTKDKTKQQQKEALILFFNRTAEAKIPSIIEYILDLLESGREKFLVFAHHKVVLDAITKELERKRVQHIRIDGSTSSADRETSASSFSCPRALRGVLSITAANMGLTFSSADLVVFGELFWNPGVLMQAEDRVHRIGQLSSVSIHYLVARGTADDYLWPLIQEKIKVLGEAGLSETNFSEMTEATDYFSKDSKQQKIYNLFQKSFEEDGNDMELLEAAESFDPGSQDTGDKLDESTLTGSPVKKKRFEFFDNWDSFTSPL
# measurement_description: intrinsic tryptophan fluorescence quenching
# particulars: Fluorescence at 25 C (Cary-Varian spectrofluorimeter); buffer, salt and pH not given (as in ref 13)
observation_type: Kd (nM)
Quick note: give the figure in nM, leave out the unit.

### Prompt Data request, read-out Kd, for GCGCAATTGCGCTCGACGATTTTTTAGCGCAATTGCGC [slDNA (stem-loop DNA)]
### Response 41.5
